# Target desc: T1, HLA-DRB1*0701 (human)
# T1 construct: also called DR7
# Protocol summary: competition with 125I-labeled standard peptide, purified HLA-DR, gel filtration

{"Binder": "LLVVVLGVVFGILIK (synthetic 15-mer; also called Her2/neu.662) [HER2/neu DR supermotif exemplary peptide LLVVVLGVVFGILIK (position 662)]", "relative binding ratio": "0.0019 ratio (standard IC50 / test IC50)"}

Cited source: patent US20040018971A1
